Counter-ions that a name gives are not always drawn.
Test readout: melting point (°C)

Sample records with melting point:
Compound: CC(=O)N1CCC(C)(C)c2cc(F)cc(CCN3CCN(c4nsc5ccc(F)cc45)CC3)c21 (as salt: HCl)
Measure unit: °C
Value measured: 128
--
Compound: CN1C(=O)CC(C)(C)c2cccc(CCN3CCN(c4nsc5ccccc45)CC3)c21
Measure unit: °C
Value measured: 261

a: CC(=O)N1CCC(C)(C)c2c(C)ccc(CCN3CCN(c4noc5ccccc45)CC3)c21 (as salt: HCl)
b: CC(=O)N1CCC(C)(C)c2cc(F)cc(CCN3CCN(c4noc5ccccc45)CC3)c21 (as salt: HCl)
Exam item: Decide: a or b , by lowest recorded melting point. Answer by stating the label of the chosen item.
Marked response: b
(b: 112 °C, a: 230 °C)
